Consider the following compounds; for each one, report its pIC50.
Test system: human sperm
experimental details: Effect of quinones on sperm motility
Assay type: cell-based
experimental setup: human sperm in seminal plasma, motility scored approximately 20 seconds after addition; read-out: ID50, dose-dependent inhibition of sperm motility
pIC50: −log10 of the molar value.

INPUT: Can you look up the measured pIC50 of O=C1C=CC(=O)c2ccccc21 for me?
OUTPUT: ~5.00

INPUT: Another compound to check: O=C1C=CC(=O)c2c(O)cccc21
OUTPUT: ~5.00

---

Test system: human sperm
experimental details: Effect of quinones on sperm motility
Assay type: cell-based
experimental setup: 50 μM quinone, human sperm
measurement label: mean motility score
Please state the value followed by its unit.

INPUT: # query: mean motility score | item O=C1C=CC(=O)c2c(O)cccc21 | system: human sperm
OUTPUT: 5%

INPUT: Next: CC1=CC(=O)c2c(O)cccc2C1=O
OUTPUT: 54%

INPUT: Next compound up: O=C1C=C(O)C(=O)c2ccccc21
OUTPUT: 51%

INPUT: Could you do the same for O=C1C=CC(=O)c2ccccc21 , please?
OUTPUT: 0.143%
